System: T47D
protocol_details: Antiproliferative activity against human T47D cells after 48 hrs by SRB assay
Type: functional, cell-based
I'd be grateful if you could share measured pIC50 for these entries.
Answers are plain numbers, as −log10 of the molar value.

Some solved entries appear below for comparison.
[[record]]
smiles_notation = "O=C(/C=C\\Nc1ccc(S(=O)(=O)Nc2cnc3ccccc3n2)cc1)c1ccc2c(c1)Nc1ccccc1S2"
numeric_value = 4.67

[[record]]
smiles_notation = "O=C(/C=C\\Nc1ccc(S(=O)(=O)c2ccc(N/C=C\\C(=O)c3ccc4c(c3)Nc3ccccc3S4)cc2)cc1)c1ccc2c(c1)Nc1ccccc1S2"
numeric_value = 4.33

[[record]]
smiles_notation = "Nc1ccc(S(=O)(=O)c2ccc(N/C=C\\C(=O)c3ccc4c(c3)Nc3ccccc3S4)cc2)cc1"
numeric_value = 4.26

[[record]]
smiles_notation = "N=C(N)NS(=O)(=O)c1ccc(N/C=C\\C(=O)c2ccc3c(c2)Nc2ccccc2S3)cc1"
numeric_value = 4.63


// for each compound in input: emit pIC50
1. COc1cnc(NS(=O)(=O)c2ccc(N/C=C\C(=O)c3ccc4c(c3)Nc3ccccc3S4)cc2)nc1
2. COc1cc(NS(=O)(=O)c2ccc(N/C=C\C(=O)c3ccc4c(c3)Nc3ccccc3S4)cc2)nc(OC)n1
3. Cc1cc(C)nc(NS(=O)(=O)c2ccc(N/C=C\C(=O)c3ccc4c(c3)Nc3ccccc3S4)cc2)n1

## Result
[4.08, 4.24, 4.29]

## Task Entry under review: NS(=O)(=O)c1ccc(N/C=C\C(=O)c2ccc3c(c2)Nc2ccccc2S3)cc1 . Reported pIC50?
## Result 4.17

---

Test system: T47D
protocol_details: Antiproliferative activity against human T47D cells after 48 hrs by SRB assay
Assay type: functional, cell-based
For each of the compounds below, state its pIC50.
Numbers only, as −log10 of the molar value.

Examples with their reported pIC50 follow.
[[record]]
compound = "COc1ncnc(NS(=O)(=O)c2ccc(N/C=C\\C(=O)c3ccc4c(c3)Nc3ccccc3S4)cc2)c1OC"
numeric_value = 4.09

[[record]]
compound = "COc1cccc2c1C(=O)c1c(O)c3c(c(O)c1C2=O)C[C@@](O)(C(=O)CO)C[C@@H]3O[C@H]1C[C@H](N)[C@H](O)[C@H](C)O1 [DOXORUBICIN]"
numeric_value = 5.01

[[record]]
compound = "O=C(/C=C\\Nc1ccc(S(=O)(=O)Nc2ccnn2-c2ccccc2)cc1)c1ccc2c(c1)Nc1ccccc1S2"
numeric_value = 4.17

[[record]]
compound = "O=C(/C=C\\Nc1ccc(S(=O)(=O)Nc2ccccn2)cc1)c1ccc2c(c1)Nc1ccccc1S2"
numeric_value = 5.06

[[record]]
compound = "Cc1nnc(NS(=O)(=O)c2ccc(N/C=C\\C(=O)c3ccc4c(c3)Nc3ccccc3S4)cc2)s1"
numeric_value = 4.15


Each compound below has a reported value. Please supply its pIC50.
1. Cc1ccnc(NS(=O)(=O)c2ccc(N/C=C\C(=O)c3ccc4c(c3)Nc3ccccc3S4)cc2)n1
2. O=C(/C=C\Nc1ccc(S(=O)(=O)Nc2ncccn2)cc1)c1ccc2c(c1)Nc1ccccc1S2
3. Cc1cc(NS(=O)(=O)c2ccc(N/C=C\C(=O)c3ccc4c(c3)Nc3ccccc3S4)cc2)nc(C)n1
4. CN(C)/C=C\C(=O)c1ccc2c(c1)Nc1ccccc1S2
5. CC(=O)NS(=O)(=O)c1ccc(N/C=C\C(=O)c2ccc3c(c2)Nc2ccccc2S3)cc1

## Result
[4.13, 4.21, 4.25, 3.87, 4.14]

For every listed record, write down its pIC50.
1. O=C(/C=C\Nc1ccc(S(=O)(=O)Nc2ccc3cn[nH]c3c2)cc1)c1ccc2c(c1)Nc1ccccc1S2
2. Cc1cc(NS(=O)(=O)c2ccc(N/C=C\C(=O)c3ccc4c(c3)Nc3ccccc3S4)cc2)on1
3. Cc1noc(NS(=O)(=O)c2ccc(N/C=C\C(=O)c3ccc4c(c3)Nc3ccccc3S4)cc2)c1C
4. O=C(/C=C\Nc1ccc(S(=O)(=O)Nc2nccs2)cc1)c1ccc2c(c1)Nc1ccccc1S2

## Result
[4.04, 4.11, 4.10, 5.09]
